- System: genotype 1b (Con-1) HCV replicon
- procedure text: HCV replicon luciferase assay
- Assay type: cell-based
- measurement parameters: Hepatitis C virus, 72 h; genotype 1b replicon, Huh-7, Renilla luciferase, 3 days; read-out: EC50 1b (class)
property name: EC50

| record smiles | property name | reported |
| --- | --- | --- |
| CCN(CC)c1cc2oc(-c3ccc(Oc4cccc(F)c4)cc3)c(C(=O)NC)c2cc1-c1cccc(C(=O)NC(C)(C)C(=O)O)c1 | EC50 | > 1000 nM |
| [2H]C([2H])([2H])C(NC(=O)c1cc(-c2cc3c(C(=O)NC)c(-c4ccc(Oc5ccc(F)cc5)cc4)oc3cc2N(CC)S(C)(=O)=O)ccc1OC)(C([2H])([2H])[2H])C([2H])([2H])[2H] | EC50 | < 100 nM |
| CNC(=O)c1c(-c2ccc(NCC(F)F)cc2)oc2nc(NCC(F)F)c(-c3cccc(C(=O)NC(C)(C)C)c3)cc12 | EC50 | < 100 nM |
| CCN(c1cc2oc(-c3ccc(Oc4cccc(Cl)c4)cc3)c(C(=O)NC)c2cc1-c1cccc(C(=O)N[C@@H](C)C(F)(F)F)c1)S(C)(=O)=O | EC50 | < 100 nM |
| CNC(=O)c1c(-c2ccc(Oc3cccc(F)c3)cc2)oc2nc(CCC(F)(F)F)c(-c3cccc(C(=O)NC(C)(C)C)c3)cc12 | EC50 | < 100 nM |
| CNC(=O)c1c(-c2ccc(Oc3ccc(F)cc3)cc2)oc2cc(N(C)S(C)(=O)=O)c(-c3cccc(C(=O)NCC(F)(F)F)c3)cc12 | EC50 | < 100 nM |
| CCN(c1cc2oc(-c3ccc(Oc4cccc(F)c4)cc3)c(C(=O)NC)c2cc1-c1cccc(C(=O)NC2(C)CC2)c1)S(C)(=O)=O | EC50 | > 1000 nM |

FYI, the data here is from patent US10214534B2.
